# assayed system: Granulocyte colony-stimulating factor receptor (Homo sapiens, UniProt Q99062)
# Sequence (Q99062 whole entry): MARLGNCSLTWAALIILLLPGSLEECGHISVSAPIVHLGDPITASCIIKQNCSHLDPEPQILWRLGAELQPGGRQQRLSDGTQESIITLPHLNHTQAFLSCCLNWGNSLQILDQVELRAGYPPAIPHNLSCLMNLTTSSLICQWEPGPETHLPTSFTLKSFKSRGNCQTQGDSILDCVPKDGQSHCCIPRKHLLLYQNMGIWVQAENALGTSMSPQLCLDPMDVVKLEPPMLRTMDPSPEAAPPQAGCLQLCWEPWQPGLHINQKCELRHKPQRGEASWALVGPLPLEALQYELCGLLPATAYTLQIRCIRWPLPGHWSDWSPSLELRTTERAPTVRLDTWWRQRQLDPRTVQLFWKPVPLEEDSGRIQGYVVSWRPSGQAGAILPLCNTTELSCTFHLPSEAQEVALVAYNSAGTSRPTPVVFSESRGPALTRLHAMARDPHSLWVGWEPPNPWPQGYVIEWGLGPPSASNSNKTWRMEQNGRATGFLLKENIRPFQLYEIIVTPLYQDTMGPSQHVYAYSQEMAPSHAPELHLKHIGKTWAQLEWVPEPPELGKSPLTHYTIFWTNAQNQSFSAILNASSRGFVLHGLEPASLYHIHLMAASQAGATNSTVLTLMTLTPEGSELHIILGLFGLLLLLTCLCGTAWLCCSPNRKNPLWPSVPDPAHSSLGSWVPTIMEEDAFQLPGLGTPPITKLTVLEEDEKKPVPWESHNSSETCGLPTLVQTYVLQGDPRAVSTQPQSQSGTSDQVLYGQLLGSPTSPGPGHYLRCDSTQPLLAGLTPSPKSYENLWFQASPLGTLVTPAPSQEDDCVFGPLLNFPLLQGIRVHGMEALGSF
# assay explanation: Binding affinity to granulocyte colony stimulating factor receptor by SPR biosensor technique
# recorded conditions: read-out: Kd
Kd overview
property label: Kd

{"smiles structure": "CC(C)CCOc1cc(CN(CCC(=O)O)c2cccc(CCC(N)=O)c2)cc(OCCCN)c1", "assayed system": "Granulocyte colony-stimulating factor receptor (Homo sapiens, UniProt Q99062)", "result": "47 µM"}
{"smiles structure": "CC(C)CCOc1cc(OCCCN)cc(-c2ccc(CCC(=O)O)c(CCC(N)=O)c2)c1", "assayed system": "Granulocyte colony-stimulating factor receptor (Homo sapiens, UniProt Q99062)", "result": "20 µM"}
